# Tested on: Staphylococcus sp.
# Procedure Summary: In vitro antibacterial evaluation: minimum inhibitory concentration (MIC), broth dilution method
# Type: cell-based
# Condition Label: strain ATCC 29213; broth dilution, 18 hours at 35° C.
# Text: […]
Property Name: MIC Staphylococcus aureus (ATCC 29213) (µg/mL)
The answer is to be given in µg/mL; state only the numeric part.

Previously resolved entries follow.
| Molecule | Property Name | Reading Unit | Test Result |
| --- | --- | --- | --- |
| CC(c1ccccc1)C1NC(=O)CNC(=O)C(CO)NC(=O)C(C(O)C2CNC(=N)N2C2OC(CO)C(O)C(O)C2O)NC(=O)C(C(O)C2CNC(=N)N2)NC(=O)C(Cc2ccc(OC3OC(CO)C(OC4OC5COC(C6CCCCC6)OC5C(O)C4O)C(O)C3O)cc2)NC1=O (stereo not drawn) | MIC Staphylococcus aureus (ATCC 29213) | µg/mL | 1 |
| CC(C)=CCCC(C)C1OCC2OC(OC3C(CO)OC(Oc4ccc(CC5NC(=O)C(C(C)c6ccccc6)NC(=O)CNC(=O)C(CO)NC(=O)C(C(O)C6CNC(=N)N6C6OC(CO)C(O)C(O)C6O)NC(=O)C(C(O)C6CNC(=N)N6)NC5=O)cc4)C(O)C3O)C(O)C(O)C2O1 (stereo not drawn) | MIC Staphylococcus aureus (ATCC 29213) | µg/mL | 32 |

Return MIC Staphylococcus aureus (ATCC 29213) for the following molecule: COc1ccc(Oc2cccc(C3OCC4OC(OC5C(CO)OC(Oc6ccc(CC7NC(=O)C(C(C)c8ccccc8)NC(=O)CNC(=O)C(CO)NC(=O)C(C(O)C8CNC(=N)N8C8OC(CO)C(O)C(O)C8O)NC(=O)C(C(O)C8CNC(=N)N8)NC7=O)cc6)C(O)C5O)C(O)C(O)C4O3)c2)cc1 (stereo not drawn)
2

* * *

# System: Staphylococcus sp.
# Procedure Summary: In vitro antibacterial evaluation: minimum inhibitory concentration (MIC), broth dilution method
# Assay type: cell-based
# Condition Label: strain GC 3053; broth dilution, 18 hours at 35° C.
Property Name: MIC Staphylococcus aureus (GC 3053) (µg/mL)
The answer is to be given in µg/mL; state only the numeric part.

Previously resolved entries follow.
| Compound | Test Result |
| --- | --- |
| CC(C)=CCOc1cccc(C2OCC3OC(OC4C(CO)OC(Oc5ccc(CC6NC(=O)C(C(C)c7ccccc7)NC(=O)CNC(=O)C(CO)NC(=O)C(C(O)C7CNC(=N)N7C7OC(CO)C(O)C(O)C7O)NC(=O)C(C(O)C7CNC(=N)N7)NC6=O)cc5)C(O)C4O)C(O)C(O)C3O2)c1 (centres unmarked) [Example 165] | 16 |
| COc1cccc(C2OC3C(OC4C(CO)OC(Oc5ccc(CC6NC(=O)C(C(C)c7ccccc7)NC(=O)CNC(=O)C(CO)NC(=O)C(C(O)C7CNC(=N)N7C7OC(CO)C(O)C(O)C7O)NC(=O)C(C(O)C7CNC(=N)N7)NC6=O)cc5)C(O)C4O)OC(CO)C(O)C3O2)c1 (single isomer, unassigned) [Example 137b] | 16 |
| CC(c1ccccc1)C1NC(=O)CNC(=O)C(CO)NC(=O)C(C(O)C2CNC(=N)N2C2OC(CO)C(O)C(O)C2O)NC(=O)C(C(O)C2CNC(=N)N2)NC(=O)C(Cc2ccc(OC3OC(CO)C(OC4OC5COC(Cc6ccc(Br)cc6)OC5C(O)C4O)C(O)C3O)cc2)NC1=O (centres unmarked) [Example 118] | 1 |
| COc1cc(OC)cc(C2OCC3OC(OC4C(CO)OC(Oc5ccc(CC6NC(=O)C(C(C)c7ccccc7)NC(=O)CNC(=O)C(CO)NC(=O)C(C(O)C7CNC(=N)N7C7OC(CO)C(O)C(O)C7O)NC(=O)C(C(O)C7CNC(=N)N7)NC6=O)cc5)C(O)C4O)C(O)C(O)C3O2)c1 (centres unmarked) [Example 150] | 8 |
| CC(c1ccccc1)C1NC(=O)CNC(=O)C(CO)NC(=O)C(C(O)C2CNC(=N)N2C2OC(CO)C(O)C(O)C2O)NC(=O)C(C(O)C2CNC(=N)N2)NC(=O)C(Cc2ccc(OC3OC(CO)C(OC4OC5COC(c6ccc(S(C)(=O)=O)cc6)OC5C(O)C4O)C(O)C3O)cc2)NC1=O (centres unmarked) [Example 157] | 32 |

Next:
Return MIC Staphylococcus aureus (GC 3053) for the following compound: CCOc1cc(C2OCC3OC(OC4C(CO)OC(Oc5ccc(CC6NC(=O)C(C(C)c7ccccc7)NC(=O)CNC(=O)C(CO)NC(=O)C(C(O)C7CNC(=N)N7C7OC(CO)C(O)C(O)C7O)NC(=O)C(C(O)C7CNC(=N)N7)NC6=O)cc5)C(O)C4O)C(O)C(O)C3O2)ccc1[N+](=O)[O-] (centres unmarked) [Example 167]
16
